The values you see were collected from patent US7534763B2.

Assay: Dog pharmacokinetic study (iv and sc, solution vehicles)
Format: in vivo
Details: beagle, plasma, sc, 67 ug/kg; dog, subcutaneous 67 μg/kg, Tables 6A-6C (vehicle 0.2 M Tris, pH 8.0); read-out: AUCtot
Where a SMILES comes first, the peptide text is derived from it. [ ]: non-standard residue; d: D form. The star is where a group is joined. ξ: configuration not given here. Ala(6-(2-MePh)pyridin-3-yl) = Cc1ccccc1-c1ccc(C[C@H](N)C(=O)O)cn1; Phe(4-(2-Et-4-HO-Ph)) = CCc1cc(O)ccc1-c1ccc(C[C@H](N)C(=O)O)cc1; ξαMePhe(2-F) = CC(N)(Cc1ccccc1F)C(=O)O; ξαMeP = CC1(C(=O)O)CCCN1; Moc = COC(=O)*

COMPOUND: CCc1cc(O)ccc1-c1ccc(C[C@H](NC(=O)[C@H](CC(=O)O)NC(=O)[C@H](CO)NC(=O)[C@@H](NC(=O)C(C)(Cc2ccccc2F)NC(=O)[C@@H](NC(=O)CNC(=O)[C@H](CCC(=O)O)NC(=O)C2(C)CCCN2C(=O)[C@H](Cc2c[nH]cn2)NC(=O)OC)[C@@H](C)O)[C@@H](C)O)C(=O)N[C@@H](Cc2ccc(-c3ccccc3C)nc2)C(N)=O)cc1 (stereo partly shown) [SEQ ID NO: 158] (Moc-H[ξαMeP]EGT[ξαMePhe(2-F)]TSD[Phe(4-(2-Et-4-HO-Ph))][Ala(6-(2-MePh)pyridin-3-yl)]-NH2)
AUC [µM·h]: 1.47
